src = ChEMBL document CHEMBL1152827

# Procedure Summary: Selectivity index, ratio of IC50 for human kidney epithelial cells to IC50 for Entamoeba histolytica HM-1:IMSS trophozoites
# Design: species or system Epithelial cell
Let's look at some compounds and their measured Ratio IC50.

// below: answered compounds
Compound	Observed Value
Cc1cccc(NC(=S)N2N=C(c3ccccc3)CC2c2ccc(C3CC(c4ccccc4)=NN3C(=S)Nc3cccc(C)c3)cc2)c1 (stereo unspecified)	>50
Cc1ncc([N+](=O)[O-])n1CCO	>55.55
O=[N+]([O-])c1ccc(NC(=S)N2N=C(c3ccccc3)CC2c2ccc(C3CC(c4ccccc4)=NN3C(=S)Nc3ccc([N+](=O)[O-])cc3)cc2)cc1 (stereo unspecified)	>214
S=C(NC1CCCCCCC1)N1N=C(c2ccccc2)CC1c1ccc(C2CC(c3ccccc3)=NN2C(=S)NC2CCCCCCC2)cc1 (stereo unspecified)	>97.8
CN(Cc1ccccc1)C(=S)N1N=C(c2ccccc2)CC1c1ccc(C2CC(c3ccccc3)=NN2C(=S)N(C)Cc2ccccc2)cc1 (stereo unspecified)	>50
S=C(NC1CCCCC1)N1N=C(c2ccccc2)CC1c1ccc(C2CC(c3ccccc3)=NN2C(=S)NC2CCCCC2)cc1 (stereo unspecified)	>77.6
Cc1ccc(NC(=S)N2N=C(c3ccccc3)CC2c2ccc(C3CC(c4ccccc4)=NN3C(=S)Nc3ccc(C)cc3)cc2)cc1 (stereo unspecified)	>50
Fc1ccc(NC(=S)N2N=C(c3ccccc3)CC2c2ccc(C3CC(c4ccccc4)=NN3C(=S)Nc3ccc(F)cc3F)cc2)c(F)c1 (stereo unspecified)	>145
NC(=S)N1N=C(c2ccccc2)CC1c1ccc(C2CC(c3ccccc3)=NN2C(N)=S)cc1 (stereo unspecified)	>57.3
S=C(NC1CCCC1)N1N=C(c2ccccc2)CC1c1ccc(C2CC(c3ccccc3)=NN2C(=S)NC2CCCC2)cc1 (stereo unspecified)	>50

From here, focus on the item given below.
Quick one: Ratio IC50 for S=C(N1CCCC1)N1N=C(c2ccccc2)CC1c1ccc(C2CC(c3ccccc3)=NN2C(=S)N2CCCC2)cc1 (stereo unspecified) ? >50

* * *

# System: Entamoeba histolytica
# Procedure Summary: Antiamoebic activity against Entamoeba histolytica HM-1:IMSS trophozoites after 72 hrs by microdilution method
# Format: functional, organism-based
Threshold-based label: IC50 under 1 µM gives Satisfied, IC50 not under 1 µM gives Not satisfied.

Molecule	Class Assignment
S=C(NC1CCCCCCC1)N1N=C(c2ccccc2)CC1c1ccc(C2CC(c3ccccc3)=NN2C(=S)NC2CCCCCCC2)cc1 (stereo not given)	Satisfied
Fc1ccc(NC(=S)N2N=C(c3ccccc3)CC2c2ccc(C3CC(c4ccccc4)=NN3C(=S)Nc3ccc(F)cc3F)cc2)c(F)c1 (stereo not given)	Satisfied
CN(Cc1ccccc1)C(=S)N1N=C(c2ccccc2)CC1c1ccc(C2CC(c3ccccc3)=NN2C(=S)N(C)Cc2ccccc2)cc1 (stereo not given)	Not satisfied
S=C(NC1CCCCC1)N1N=C(c2ccccc2)CC1c1ccc(C2CC(c3ccccc3)=NN2C(=S)NC2CCCCC2)cc1 (stereo not given)	Not satisfied
O=[N+]([O-])c1ccc(NC(=S)N2N=C(c3ccccc3)CC2c2ccc(C3CC(c4ccccc4)=NN3C(=S)Nc3ccc([N+](=O)[O-])cc3)cc2)cc1 (stereo not given)	Satisfied

For the next question, use this molecule.
Just wondering, is IC50 of Cc1ccc(NC(=S)N2N=C(c3ccccc3)CC2c2ccc(C3CC(c4ccccc4)=NN3C(=S)Nc3ccc(C)cc3)cc2)cc1 (stereo not given) below 1 µM? Not satisfied
